Tested on: L929 cells
assay text: TNF High Throughput Screen (TNF-α driven apoptosis assay)
Assay type: cell-based, mouse
assay setup: Mus musculus, compound at 1 μM, human TNF-α + actinomycin D, read-out: TNFα % Inh. @ 1 μM
Reported inhibition at 1 µM values follow for various compounds
parameter measured: inhibition at 1 µM (%)

COc1ccc(CCNC(=O)C(c2cccc(C#N)c2)N(CCc2c[nH]cn2)C(=O)Cc2c[nH]c3ccc(Br)cc23)cc1 (stereo not drawn): 60
N#Cc1cccc(C(C(=O)NCCC(c2ccccc2)c2ccccc2)N(CCc2c[nH]cn2)C(=O)c2cccc3ccccc23)c1 (stereo not drawn): 57
N#Cc1cccc(C(C(=O)NCCC(c2ccccc2)c2ccccc2)N(CCc2c[nH]cn2)C(=O)c2ccccc2C(=O)c2ccc(Cl)cc2)c1 (stereo not drawn): 71

All figures here come from patent US9579325B2.
